Here, each record is paired with measured Retention_time data.
procedure.details: Chemical stability of the compound in HTS buffer assessed as GSH adduct formation measured as retention time after 5 mins by UPLC-MS analysis
Format: physicochemical
measure.name: Retention_time (min)

[
  {
    "molecule": "O=C(O)CSc1cc(NS(=O)(=O)c2ccc(C(=O)O)cc2)c2ccccc2c1O",
    "reported.result": 3.27
  },
  {
    "molecule": "O=S(=O)(Nc1cc(Sc2nnnn2-c2ccccc2)c(O)c2ccccc12)c1ccccc1",
    "reported.result": 3.4
  },
  {
    "molecule": "O=C(O)CCSc1cc(NS(=O)(=O)c2ccc(Br)cc2)c2ccccc2c1O",
    "reported.result": 3.67
  },
  {
    "molecule": "O=S(=O)(Nc1cc(Cl)c(O)c2ccccc12)c1ccc(Br)cc1",
    "reported.result": 3.65
  },
  {
    "molecule": "O=S(=O)(Nc1cc(Sc2nc[nH]n2)c(O)c2ccccc12)c1ccc2ccccc2c1",
    "reported.result": 3.69
  }
]

====

target.entity: Histone acetyltransferase RTT109 (Saccharomyces cerevisiae (strain ATCC 204508 / S288c) (Baker's yeast))
Sequence (whole entry): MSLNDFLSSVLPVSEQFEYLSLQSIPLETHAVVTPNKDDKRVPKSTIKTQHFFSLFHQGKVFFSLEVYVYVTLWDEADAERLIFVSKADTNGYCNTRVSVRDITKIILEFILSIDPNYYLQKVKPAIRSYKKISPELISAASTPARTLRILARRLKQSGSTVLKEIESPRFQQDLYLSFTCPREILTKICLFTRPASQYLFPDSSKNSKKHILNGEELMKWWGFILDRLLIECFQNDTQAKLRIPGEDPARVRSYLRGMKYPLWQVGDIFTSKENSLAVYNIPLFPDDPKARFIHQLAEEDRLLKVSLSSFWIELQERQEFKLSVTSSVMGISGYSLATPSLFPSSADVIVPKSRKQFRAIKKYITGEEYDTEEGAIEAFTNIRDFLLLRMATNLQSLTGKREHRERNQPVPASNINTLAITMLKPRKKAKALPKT
procedure.details: Inhibition of Vps75-stimulated recombinant Saccharomyces cerevisiae histone acetyltransferase Rtt109 assessed as H3K27 acetylated product at […] after 45 mins by Slot bolt inhibiton assay
The source made the active and inactive calls. No rule for the calls is given here.
Outcomes: active, inactive

[
  {
    "molecule": "CNc1nc(-c2ccccc2)[n+](-c2ccccc2)s1.[Cl-]",
    "group.label": "active"
  },
  {
    "molecule": "O=C1C=CC(=O)N1c1ccc(Br)cc1",
    "group.label": "active"
  },
  {
    "molecule": "COc1ccc(-c2nnc(Sc3ccc([N+](=O)[O-])c4nonc34)[nH]2)cc1",
    "group.label": "active"
  },
  {
    "molecule": "Nc1ncnc2[nH]c(Sc3c([N+](=O)[O-])cc(Br)c4nsnc34)nc12",
    "group.label": "active"
  },
  {
    "molecule": "O=S(=O)(Nc1cc(Sc2nc3ccccc3s2)c(O)c2ccccc12)c1ccccc1",
    "group.label": "active"
  },
  {
    "molecule": "Cc1occc1-c1nnc(SC2=CS(=O)(=O)c3ccccc32)o1",
    "group.label": "active"
  },
  {
    "molecule": "[O-][Cl+3]([O-])([O-])[O-].c1ccc(C[n+]2sc(N(c3ccccc3)c3ccccc3)nc2-c2ccccc2)cc1",
    "group.label": "active"
  },
  {
    "molecule": "O=S(=O)(C[n+]1sc(N(c2ccccc2)c2ccccc2)nc1-c1ccccc1)c1ccccc1.[Br-]",
    "group.label": "inactive"
  },
  {
    "molecule": "Cc1ccc(-c2nc(N)s[n+]2-c2ccccc2)cc1.[Br-]",
    "group.label": "active"
  },
  {
    "molecule": "O=S1(=O)C=C(Sc2nn(-c3ccccc3)c(=S)s2)c2ccccc21",
    "group.label": "active"
  }
]
